- system-name: Cyclin-dependent kinase 2 (Homo sapiens) (UniProt P24941);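 further: mean inhibition of the CDK2–cyclin A kinase complex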
- condition-context: at 1 µM
measure-name: inhibition (%)

- compound: "COc1cc2ncnc(Nc3ccc(C)c(O)c3)c2cc1OC"
  system-name: "Cyclin-dependent kinase 2 (Homo sapiens) (UniProt P24941)"
  measure-name: "inhibition"
  observed-result: 1.09
- compound: "O=C1Nc2ccccc2/C1=C/Nc1ccc2[nH]c(=O)[nH]c2c1"
  system-name: "Cyclin-dependent kinase 2 (Homo sapiens) (UniProt P24941)"
  measure-name: "inhibition"
  observed-result: 7.88
- compound: "CCS(=O)(=O)c1ccc(OC)c(Nc2ncc(-c3cccc(OC)c3)o2)c1"
  system-name: "Cyclin-dependent kinase 2 (Homo sapiens) (UniProt P24941)"
  measure-name: "inhibition"
  observed-result: 5.48
- compound: "Cc1ccc(O)cc1Nc1ccnc2ccc(S(C)(=O)=O)cc12"
  system-name: "Cyclin-dependent kinase 2 (Homo sapiens) (UniProt P24941)"
  measure-name: "inhibition"
  observed-result: 4.49
- compound: "c1ccc(Cc2nc3ccc(Nc4ncnc5ccccc45)cc3[nH]2)cc1"
  system-name: "Cyclin-dependent kinase 2 (Homo sapiens) (UniProt P24941)"
  measure-name: "inhibition"
  observed-result: 7.78
- compound: "NS(=O)(=O)c1ccc(Nc2cc(-c3cccc(O)c3)n[nH]2)cc1"
  system-name: "Cyclin-dependent kinase 2 (Homo sapiens) (UniProt P24941)"
  measure-name: "inhibition"
  observed-result: 78.1
- compound: "FC(F)(F)c1ccc(-c2nn3ncccc3c2-c2ccnc(Nc3ccc4c(c3)OCCO4)n2)cc1"
  system-name: "Cyclin-dependent kinase 2 (Homo sapiens) (UniProt P24941)"
  measure-name: "inhibition"
  observed-result: -1.87
- compound: "OCc1ccc(-c2nc(-c3ccccn3)c(-c3ccc4c(c3)OCO4)[nH]2)cc1"
  system-name: "Cyclin-dependent kinase 2 (Homo sapiens) (UniProt P24941)"
  measure-name: "inhibition"
  observed-result: -2.92
- compound: "Cc1ccc2c(c1)/C(=N/Nc1ccc(S(N)(=O)=O)cc1)C(=O)N2"
  system-name: "Cyclin-dependent kinase 2 (Homo sapiens) (UniProt P24941)"
  measure-name: "inhibition"
  observed-result: 69.6
- compound: "[O-][S+]1CCN(Cc2ccc(-c3ccc4ncnc(Nc5ccc(OCc6ccccc6)c(Cl)c5)c4c3)o2)CC1"
  system-name: "Cyclin-dependent kinase 2 (Homo sapiens) (UniProt P24941)"
  measure-name: "inhibition"
  observed-result: 2.09
